target: DNA polymerase beta (Mus musculus) (UniProt Q8K409); assay: The logarithm of the reciprocal of the concentration which produces 50% inhibition of mammalian beta DNA polymerase.
recorded.endpoint: Log 1/C

Observe how each entry below is paired with its result.
COC1/C=C/OC2(C)Oc3c(C)c(O)c4c(O)c(c(CN5CCNCC5)cc4c3C2=O)NC(=O)/C(C)=C\C=C\C(C)C(O)C(C)C(O)C(C)C(OC(C)=O)C1C (stereo unspecified) ... 2.38
COC1/C=C/OC2(C)Oc3c(C)c(O)c4c(O)c(c(/C=N/OCCCc5ccccc5)cc4c3C2=O)NC(=O)/C(C)=C\C=C\C(C)C(O)C(C)C(O)C(C)C(OC(C)=O)C1C (stereo unspecified) ... 5.18
COC1/C=C/OC2(C)Oc3c(C)c(O)c4c(O)c(c(/C=N/N5CCCCCCCCCCCC5)cc4c3C2=O)NC(=O)/C(C)=C\C=C\C(C)C(O)C(C)C(O)C(C)C(OC(C)=O)C1C (stereo in doubt; 17) ... 4.72
COC1/C=C/OC2(C)Oc3c(C)c(O)c4c(O)c(c(/C=N/N5C(C)CN(Cc6ccccc6)CC5C)cc4c3C2=O)NC(=O)/C(C)=C\C=C\C(C)C(O)C(C)C(O)C(C)C(OC(C)=O)C1C (stereo unspecified) ... 4.68
COC1/C=C/OC2(C)Oc3c(C)c(O)c4c(O)c(c(C=O)cc4c3C2=O)NC(=O)/C(C)=C\C=C\C(C)C(O)C(C)C(O)C(C)C(OC(C)=O)C1C (stereo unspecified) ... 2.99

P = COC1/C=C/OC2(C)Oc3c(C)c(O)c4c(O)c(c(/C=N/N5CCN(N)CC5)cc4c3C2=O)NC(=O)/C(C)=C\C=C\C(C)C(O)C(C)C(O)C(C)C(OC(C)=O)C1C (stereo unspecified)
Q = COC1/C=C/OC2(C)Oc3c(C)c(O)c4c(O)c(c(O)cc4c3C2=O)NC(=O)/C(C)=C\C=C\C(C)C(O)C(C)C(O)C(C)C(OC(C)=O)C1C (stereo unspecified)
Please indicate which item has the smaller measured Log 1/C: P versus Q // caller expects the label of the chosen entry
Q
(Q: 2.64, P: 4.8)
